System: CCRF-CEM
Experimental Protocol: NCI tumour cell line growth inhibition, 48 h
Calls of active or inactive are those of the source. Rule as the data show it: active = GI50 up to about 1.1 µM and inactive = higher.
Write down the outcome that applies. Available outcomes: class 1 for active, class 0 for inactive

Answered examples (2):
- O=C(O)C1(Cc2ccc3c(c2)CCC3)Cc2ccccc2C1=O (centres undefined): class 0
- CC(=O)N1CC[N+](C)(CCCCN2c3ccccc3Sc3cc(N=[N+]=[N-])ccc32)CC1: class 0

Each compound tested received a call. Report the one for COc1cc2c(/C=C3/C(=O)Nc4ccccc43)c(Cl)[nH]c2cc1C . class 1

Each compound tested received a call. Report the one for COc1ccc2nc3ccc(OC)cc3c([S+]([O-])CCCl)c2c1 (centres undefined) . class 0

====

Tested on: MDA-N
Experimental Protocol: NCI tumour cell line growth inhibition, 48 h
Activity calls are given as the source filed them. Cut-off read from the data, not from the text of the source: active = GI50 up to about 1.1 µM and inactive = higher.
Write down the outcome that applies. Available outcomes: active, inactive

Answered examples (5):
- CC(=O)O[C@H]1CC[C@@]2(C)C(=CC[C@@H]3[C@@H]2CC[C@]2(C)C(=N/O)/C(=C\c4ccccc4)C[C@@H]32)C1: inactive
- COc1cc2c(/C=C3/C(=O)Nc4ccccc43)c(Cl)[nH]c2cc1C: active
- O=c1[nH]nc(-c2ccccc2)c2[nH]c3c(c12)Cc1ccccc1-3: active
- NCCCNc1ccc2c3c(nn2CCNCCO)-c2c(O)ccc(O)c2C(=O)c13: inactive
- Oc1c(Br)cc(Br)cc1CN(Cc1cc(Br)cc(Br)c1O)C1CCCCC1: inactive

Each molecule tested received a call. Report the one for CN(C)c1ccc(N2C(=S)SC(=N\c3ccccc3)/C2=N/c2ccccc2)cc1 . inactive

Each molecule tested received a call. Report the one for CC(C)C1SCc2nc3ccccc3n21 (configuration not stated) . inactive

Each molecule tested received a call. Report the one for CSc1c(C#N)c(O)nc(N)c1C(=O)Nc1ccc(C)cc1 . inactive

Each molecule tested received a call. Report the one for CC(=O)/C=N/CC(=O)O . inactive

Each molecule tested received a call. Report the one for CC(C)(C)c1cc(C2=NNC(c3ccccc3)C2)cc(C(C)(C)C)c1O (configuration not stated) . inactive

Each molecule tested received a call. Report the one for Oc1ccc(Cl)cc1/N=N\c1c(O)ccc2ccccc12 . inactive

Each molecule tested received a call. Report the one for Cc1ccsc1C(=S)Nc1ccc(Cl)c(/C=N/OC(C)C)c1 . inactive

Each molecule tested received a call. Report the one for O=C(O)Cc1c[nH]c2ccc(F)cc12 . inactive

Each molecule tested received a call. Report the one for N=C(N)n1nc2c(c1O)CCC2 . inactive

Each molecule tested received a call. Report the one for N#CCC1C2CC3C(C2=O)C13 (configuration not stated) . inactive

Each molecule tested received a call. Report the one for CSCCCN(CCCSC)CCCSC . inactive

====

System: NCI-H460
Experimental Protocol: NCI tumour cell line growth inhibition, 48 h
Active and inactive are the calls of the source. No stated cut-off is given here; in the data, active = GI50 up to about 1.1 µM and inactive = higher.
Write down the outcome that applies. Available outcomes: label 1 for active, label 0 for inactive

Answered examples (3):
* O=C(NCCNCCCNC(=O)c1cc(-c2ccccc2)nc2ccccc12)c1cccc(O)c1O | label 0
* N#CCCNCCN(CCN(C(=O)Nc1ccccc1)c1ccccc1)C(=O)Nc1ccccc1 | label 0
* Cc1ccc(C)c(NC(=O)C(=O)C2C(=O)N(c3ccccc3)N=C2N)c1 (stereo not drawn) | label 0

Each molecule tested received a call. Report the one for NC(=S)N/N=C1\c2ccccc2CCC1CCC1(O)CCc2ccccc2C1=O (stereo not drawn) . label 0

Each molecule tested received a call. Report the one for C/C(=C\[C@H]1C[C@@H]([C@@H]2CC[C@]34C[C@]23C=C[C@@H]2[C@@]3(C)CC=C5C[C@@H](c6ccccc6)OC[C@]5(C)[C@@H]3C[C@@H](O)[C@]24C)C(=O)O1)CO . label 1

====

Consider the following molecules; for each one, report its GI50.
Test system: UACC-257
Experimental Protocol: NCI tumour cell line growth inhibition, 48 h
Calls of active or inactive are those of the source. Cut-off read from the data, not from the text of the source: active = GI50 up to about 1.1 µM and inactive = higher.

• CCSSCS(C)(=O)=O = 21.3 µM (inactive)

Batch request: GI50 per item, same order as input.
1. CC(C)(C)OC(=O)NNC(=O)C1Cc2ccccc2OC1=O (stereo unspecified)
2. N=C(N)n1nc2c(c1O)CCC2
3. OCC(CN1CCCCC1)(CN1CCCCC1)CN1CCCCC1
4. CC(C)=CCC[C@@H](C)C1=C(O)C(O)C(C)=C2N=C(c3ccccc3)C(=O)OC21 (stereo partly specified)
5. C=CCN(N=O)C(=O)N(CCC)CCCC(NC(C)=O)C(=O)NCc1ccccc1 (stereo unspecified)
6. O=[N+]([O-])C(Cl)C(Cl)C(Cl)=C(Cl)Cl (stereo unspecified)
7. O=C1CN2CCN(CC2)CC(=O)Nc2ccc(cc2)S(=O)(=O)c2ccc(cc2)NC(=O)CN2CCN(CC2)CC(=O)Nc2ccc(cc2)S(=O)(=O)c2ccc(cc2)N1
8. O=C1C=CC(=C(c2ccccc2)c2ccc(O)cc2)C=C1

1: > 100 µM (inactive); 2: > 100 µM (inactive); 3: > 100 µM (inactive); 4: 2.88 µM (inactive); 5: > 100 µM (inactive); 6: 22.1 µM (inactive); 7: > 100 µM (inactive); 8: 16.9 µM (inactive)

Batch request: GI50 per item, same order as input.
1. c1ccc2c(c1)Sc1ccccc1N2C1CN2CCC1CC2 (stereo unspecified)
2. O=CN/C=C/c1cccc(O)c1
3. C=C(C(=O)OCC)C(=O)OCC
4. Cc1ccc(C)c(NC(=O)CCc2nnc(S)[nH]2)c1

1: 15.5 µM (inactive); 2: 63.7 µM (inactive); 3: > 100 µM (inactive); 4: > 100 µM (inactive)

Batch request: GI50 per item, same order as input.
1. C/C(=C\[C@H]1C[C@@H]([C@@H]2CC[C@]34C[C@]23C=C[C@@H]2[C@@]3(C)CC=C5C[C@@H](c6ccccc6)OC[C@]5(C)[C@@H]3C[C@@H](O)[C@]24C)C(=O)O1)CO
2. O=[N+]([O-])c1ccc(/N=N\c2c(O)ccc3ccccc23)c([N+](=O)[O-])c1
3. COc1ccc(C(C#N)NNC(=O)Cc2ccccc2)cc1OC (stereo unspecified)
4. C[C@]12CCC[C@H](OC=O)C1(O)C[C@H](C(=O)O)CC2 (stereo partly specified)
5. O=C(O)CNCc1c2ccccc2nc2ccccc12
6. COc1ccc(C(=O)c2ccc(-n3cc(/C=C/[N+](=O)[O-])c4ccccc43)cc2)cc1

1: 1.96 µM (inactive); 2: > 100 µM (inactive); 3: > 100 µM (inactive); 4: > 100 µM (inactive); 5: 34.1 µM (inactive); 6: 10.2 µM (inactive)

Batch request: GI50 per item, same order as input.
1. NC(=S)NN=Cc1ccccc1OCc1cccc(COc2ccccc2C=NNC(N)=S)n1
2. Cc1cccc(C)c1NC(=O)C(=O)CC(=O)c1cccc([N+](=O)[O-])c1

["> 79.8 µM (inactive)", "> 100 µM (inactive)"]

====

System: EKVX
Experimental Protocol: NCI tumour cell line growth inhibition, 48 h
The source made the active and inactive calls. Cut-off read from the data, not from the text of the source: active = GI50 up to about 1.1 µM and inactive = higher.
Test Readout: GI50

Completed entries (count: 5):
* [Zn+2][N+]12CCN3CCN4CCN(CC1)[PH]432 (stereo unspecified) | > 100 µM (inactive)
* COc1ccc(N(CN2C(=O)CCC2OC)C(C)=O)cc1 (stereo unspecified) | > 100 µM (inactive)
* COc1ccc(S(=O)(=O)NNS(C)(=O)=O)cc1 | > 100 µM (inactive)
* Cc1ccc(C)c(NC(=O)C(=O)C2C(=O)N(c3ccccc3)N=C2N)c1 (stereo unspecified) | > 100 µM (inactive)
* COc1cc2c(oc(=O)c3c4occc4cc(OC)c23)c2cccc(OCc3ccccc3)c12 | > 100 µM (inactive)

// next item, GI50 requested
Annotate the molecule C=C(CN(C)C)C(=O)c1cc(C)ccc1C with its measured GI50. 26.2 µM (inactive)

====

Test system: KM12
Experimental Protocol: NCI tumour cell line growth inhibition, 48 h
The source made the active and inactive calls. Cut-off read from the data, not from the text of the source: active = GI50 up to about 1.1 µM and inactive = higher.
Consider the following molecules; for each one, report its GI50.

- C=CCN(N=O)C(=O)N(CCC)CCCC(NC(C)=O)C(=O)NCc1ccccc1 (centres undefined): > 100 µM (inactive)
- CCN(CC)c1ccc2cc(C(N)=S)c(=N)oc2c1: > 100 µM (inactive)
- NC(=O)NCCCC(NC(=O)OCCCCn1ccc(=O)[nH]c1=O)C(=O)O (centres undefined): > 100 µM (inactive)

Batch request: GI50 per item, same order as input.
1. Cc1cc(=O)oc2c(C)c3oc(CBr)c(Br)c3cc12
2. CCC(C)NC(=S)N/N=C(\C)c1nc2cccnc2[nH]1 (centres undefined)
3. CCOC(=O)c1c2c(n(-c3ccc(C)cc3)c1C)-c1ccccc1C(=O)C2(C(=O)OCC)C(=O)OCC
4. CCOC(=O)c1c(N=P(c2ccccc2)(c2ccccc2)c2ccccc2)nnc(-c2ccccc2)c1-c1ccccc1
5. Cc1ccc2[nH]c3[nH]c(=S)[nH]c(=O)c3c2c1
6. CSc1c(C#N)c(O)nc(N)c1C(=O)Nc1ccc(C)cc1
7. NCCCNc1ccc2c3c(nn2CCNCCO)-c2c(O)ccc(O)c2C(=O)c13
8. O=C(O)CNCc1c2ccccc2nc2ccccc12

1: 26.8 µM (inactive); 2: 15.9 µM (inactive); 3: 38.5 µM (inactive); 4: > 100 µM (inactive); 5: > 100 µM (inactive); 6: > 100 µM (inactive); 7: 3.78 µM (inactive); 8: 32.3 µM (inactive)

Batch request: GI50 per item, same order as input.
1. CCN(CCCN(CC)C(=O)Nc1c(C)cccc1C)C(=O)Nc1c(C)cccc1C
2. C/C(=C\[C@H]1C[C@@H]([C@@H]2CC[C@]34C[C@]23C=C[C@@H]2[C@@]3(C)CC=C5C[C@@H](c6ccccc6)OC[C@]5(C)[C@@H]3C[C@@H](O)[C@]24C)C(=O)O1)CO
3. COC(=O)CCC(NC(=S)N/N=C(\C)c1ccc[nH]1)C(=O)OC (centres undefined)
4. CCCCCC(O)C(O)CCC[C@H](O)[C@H]1CC[C@H]([C@H]2CC[C@H]([C@H](O)CCCCCCCCCCCCC3=C[C@H](C)OC3=O)O2)O1 (some centres undefined)
5. O=C1/C(=C/c2ccc(Cl)cc2)CNC/C1=C\c1ccc(Cl)cc1
6. O=C(Nc1nc2ncn(CCOC(=O)c3ccccc3)c2c(=O)[nH]1)c1ccccc1
7. CCN1C(=S)n2cccc2C1CC(=O)c1ccc(Cl)cc1 (centres undefined)
8. COc1ccc(CCN2CCC(C#N)(c3ccc(OC)c(OC)c3)CC2)cc1OC

["> 100 µM (inactive)", "2.45 µM (inactive)", "> 100 µM (inactive)", "2.21 µM (inactive)", "1.44 µM (inactive)", "3.34 µM (inactive)", "> 100 µM (inactive)", "> 100 µM (inactive)"]
